Where these numbers come from: ChEMBL document CHEMBL1961873

biological target: cAMP-dependent protein kinase catalytic subunit alpha (Homo sapiens); conditions: at 0.1 µM;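 note: reported value is the mean percent inhibition of PKA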
inhibition overview
measure: inhibition (%)

>  <structure.notation>
CN(C)CCCn1c(-c2nonc2N)nc2cnccc21

>  <value.units>
%

>  <measured.value>
2.1

$$$$
>  <structure.notation>
COC(=O)c1ccc2c(c1)C(=Cc1cc(Br)c(O)c(Br)c1)C(=O)N2

>  <value.units>
%

>  <measured.value>
1.68

$$$$
>  <structure.notation>
CC(C)c1ccc(Nc2nccc(-c3cnn4ncccc34)n2)cc1

>  <value.units>
%

>  <measured.value>
1.64

$$$$
>  <structure.notation>
CCn1c(-c2nonc2N)nc2ccc(F)cc21

>  <value.units>
%

>  <measured.value>
2.75

$$$$
